The following compounds are shown together with reported Population Normal (%) values.
# Test system: U2OS
# test summary: Multiplex assay against U2OS
# Format: toxicity, cell-based
# condition details: human, 12 h, 10 µM, compound concentration 10 uM, replicate 1
Non-standard residues stand in square brackets, D forms with d. Residues, ends and D or L forms follow the SMILES beside them.

# compound, Population Normal (%)
data = [
    ("CCn1c(-c2nc3cc(C(=O)N4CCCC(N)C4)ccc3n2C)cc2ccccc21.Cl (configuration not stated)", 97),
    ("CN(C)C/C=C/C(=O)Nc1ccc(C(=O)N2CCCC(Nc3ncc(Cl)c(-c4c[nH]c5ccccc45)n3)C2)cc1 (configuration not stated)", 94),
    ("CC(C)C[C@@H]1NC(=O)[C@@H](C(C)C)NC(=O)[C@@H]2CCCN2C(=O)[C@@H](CC(=O)O)NC(=O)[C@@H](Cc2c[nH]c3ccccc23)NC1=O [BQ-123] (cyclo(L[dW][dD]P[dV]))", 97),
    ("Cl.Cl.OCCOCCN1CCN(C(c2ccccc2)c2ccc(Cl)cc2)CC1 (configuration not stated) [HYDROXYZINE HYDROCHLORIDE]", 98),
    ("COc1cc(C(=O)N2CC[C@@H](O)[C@@H](N)C2)cc2nc(-c3cc4ccccc4n3CC3CC3)n(C)c12.Cl", 93),
    ("CC(C)C[C@H](CO)Nc1nc(S[C@@H](C)c2ccccc2)nc2nc(N)sc12 [AZD-8797]", 95),
    ("N[C@](CC1c2ccccc2Oc2ccccc21)(C(=O)O)[C@H]1C[C@@H]1C(=O)O", 96),
    ("CN1CCN(c2ccc(Nc3c4ccccc4nc4ccccc34)cc2)CC1.Cl.Cl.O", 99),
    ("Cc1cc(=O)n(C)c2cc(N3C(=O)CC[C@H](NS(=O)(=O)CC(C)C)[C@H]3c3ccc(Cl)cc3)ccc12", 94),
    ("CN1C[C@H](C(=O)N[C@]2(C)O[C@@]3(O)[C@@H]4CCCN4C(=O)[C@H](Cc4ccccc4)N3C2=O)C[C@@H]2c3cccc4[nH]cc(c34)C[C@H]21.CS(=O)(=O)O [DIHYDROERGOTAMINE MESYLATE]", 97),
    ("CN(C)C(=O)Cn1cc(-c2ccc(-c3nnc4ccccn34)cc2)cn1", 98),
    ("CC(C)(C)c1ccc(CSc2cnn(C(C)(C)C)c(=O)c2Cl)cc1 [PYRIDABEN]", 98),
    ("CSc1nc(NC2CCCC2)c([N+](=O)[O-])c(NC2CCCC2)n1 [GS-39783]", 96),
    ("O=C(NCCNCC(O)COc1ccc(O)cc1)N1CCOCC1.O=C(NCCNCC(O)COc1ccc(O)cc1)N1CCOCC1.O=C(O)/C=C/C(=O)O (configuration not stated) [XAMOTEROL FUMARATE]", 99),
    ("C=CCN1C[C@H](C(=O)N(CCCN(C)C)C(=O)NCC)C[C@@H]2c3cccc4[nH]cc(c34)C[C@H]21 [CABERGOLINE]", 96),
    ("CN1CCC(C(=O)c2cccc(NC(=O)c3c(F)cc(F)cc3F)n2)CC1", 98),
    ("COC(c1ccccc1)(c1ccccc1)[C@H](Oc1nc(C)cc(C)n1)C(=O)O [AMBRISENTAN]", 97),
    ("COc1cc(OC2CCN(C(C)=O)CC2)ccc1C(=O)N1CCC(N2C(=O)OCc3ccccc32)CC1", 93),
    ("COc1cc2nc(N3CCN(C(=O)COc4c(OC)cccc4C(C)C)CC3)nc(N)c2cc1OC.Cl.Cl", 96),
    ("Cc1ccc(OCC(O)C(C)NC(C)C)c2c1CCC2.Cl (configuration not stated)", 94),
    ("CC(C)(O)C(=O)N1CCN(c2ccc(C(F)(F)F)c(C3=C(c4c[nH]c5ccccc45)C(=O)NC3=O)c2)CC1", 93),
    ("Cn1cc(C(=O)OCC2CCN(CCNS(C)(=O)=O)CC2)c2ccccc21", 99),
    ("C[C@H](NC(=O)CNC(=O)c1cccc(Cl)c1)c1ccccc1", 97),
    ("O=C(O)CCC/C=C\\CC1C(O)CC(O)C1/C=C/C(O)COc1cccc(Cl)c1 (configuration not stated) [CLOPROSTENOL]", 97),
    ("Nc1nc(CC(=O)Nc2ccc(CCNC[C@H](O)c3ccccc3)cc2)cs1 [MIRABEGRON]", 98),
    ("CCCCCCNC(=O)Nc1ccc(S(=O)(=O)Nc2ccc(CCNC[C@H](O)COc3ccc(O)cc3)cc2)cc1 [L-755507]", 96),
    ("O=C(Nc1cc(-c2ccccc2)nn1-c1ccccc1F)c1ccc([N+](=O)[O-])cc1", 96),
    ("COCCCN1CCC(NC(=O)c2cc(Cl)c(N)c3c2OCC3)CC1 [PRUCALOPRIDE]", 96),
    ("COc1c(Nc2ccc(S(C)(=O)=O)nc2C)ncnc1OC1CCN(C(=O)OC(C)C)CC1 [ADP-597]", 91),
    ("CN1CCN2c3ccccc3Cc3ccccc3C2C1.Cl (configuration not stated) [MIANSERIN HYDROCHLORIDE]", 97),
    ("CCCCC[C@H](O)/C=C/[C@H]1[C@H](O)CC(=O)[C@@H]1CCCCCCC(=O)O [ALPROSTADIL]", 98),
    ("CCC(=O)OCC(=O)[C@@]1(OC(=O)CC)[C@@H](C)C[C@H]2[C@@H]3CCC4=CC(=O)C=C[C@]4(C)[C@@]3(Cl)[C@@H](O)C[C@@]21C [BECLOMETHASONE DIPROPIONATE]", 95),
]

---

The following molecules are shown together with reported Population Mitochondria Different-Phenotype (%) values.
# System: HEK-293T
# test summary: Multiplex assay against HEK293T
# Type: toxicity, cell-based
# condition details: human, 12 h, 1 µM, compound concentration 1 uM, replicate 2
outcome measure: Population Mitochondria Different-Phenotype (%)

# molecule, quantity unit, reported measurement
measured = [
    ("COc1cc(C(=O)N2CC[C@@H](O)[C@@H](N)C2)cc2nc(-c3cc4ccccc4n3CC3CC3)n(C)c12.Cl", "%", 71),
    ("CN1CCN(c2ccc(Nc3c4ccccc4nc4ccccc34)cc2)CC1.Cl.Cl.O", "%", 59),
    ("COc1ccc2[nH]c(I)c(CCNC(C)=O)c2c1", "%", 64),
    ("CN1CCC(C(=O)c2cccc(NC(=O)c3c(F)cc(F)cc3F)n2)CC1", "%", 59),
    ("O=C(O)CCC/C=C\\CC1C(O)CC(O)C1/C=C/C(O)COc1cccc(Cl)c1 (centres undefined)", "%", 56),
    ("Cc1cc(=O)n(C)c2cc(N3C(=O)CC[C@H](NS(=O)(=O)CC(C)C)[C@H]3c3ccc(Cl)cc3)ccc12", "%", 53),
    ("CC(C)(O)C(=O)N1CCN(c2ccc(C(F)(F)F)c(C3=C(c4c[nH]c5ccccc45)C(=O)NC3=O)c2)CC1", "%", 58),
    ("Nc1nc(-c2ccco2)c2cnn(Cc3ccccc3F)c2n1", "%", 64),
    ("COCCn1c(C)c(C)s/c1=N\\C(=O)C1C(C)(C)C1(C)C", "%", 77),
    ("CCC(=O)OCC(=O)[C@@]1(OC(=O)CC)[C@@H](C)C[C@H]2[C@@H]3CCC4=CC(=O)C=C[C@]4(C)[C@@]3(Cl)[C@@H](O)C[C@@]21C [BECLOMETHASONE DIPROPIONATE]", "%", 75),
    ("Cl.Cl.OCCOCCN1CCN(C(c2ccccc2)c2ccc(Cl)cc2)CC1 (centres undefined) [HYDROXYZINE HYDROCHLORIDE]", "%", 58),
    ("COc1c(Nc2ccc(S(C)(=O)=O)nc2C)ncnc1OC1CCN(C(=O)OC(C)C)CC1", "%", 62),
    ("N[C@](CC1c2ccccc2Oc2ccccc21)(C(=O)O)[C@H]1C[C@@H]1C(=O)O", "%", 58),
    ("Cc1cc(O)c(-c2ccc([C@@H](C)CN(C)C)cc2)c2c1[nH]c(=O)c1sccc12", "%", 91),
    ("CC(C)(C)c1ccc(CSc2cnn(C(C)(C)C)c(=O)c2Cl)cc1", "%", 63),
    ("COCCCN1CCC(NC(=O)c2cc(Cl)c(N)c3c2OCC3)CC1 [PRUCALOPRIDE]", "%", 59),
    ("CN(C)C(=O)Cn1cc(-c2ccc(-c3nnc4ccccn34)cc2)cn1", "%", 59),
    ("Cc1ccc(OCC(O)C(C)NC(C)C)c2c1CCC2.Cl (centres undefined)", "%", 65),
    ("CC(F)(F)CN1CCOc2c(nn(-c3ccccc3Cl)c2-c2ccc(Cl)cc2)C1=O", "%", 53),
    ("C=CCN1C[C@H](C(=O)N(CCCN(C)C)C(=O)NCC)C[C@@H]2c3cccc4[nH]cc(c34)C[C@H]21", "%", 68),
    ("CCc1nn2c(C)cc(C)nc2c1Cc1ccc(-c2nnc(C3CCNCC3)o2)cc1", "%", 62),
    ("CN(C)C/C=C/C(=O)Nc1ccc(C(=O)N2CCCC(Nc3ncc(Cl)c(-c4c[nH]c5ccccc45)n3)C2)cc1 (centres undefined)", "%", 89),
    ("COC(c1ccccc1)(c1ccccc1)[C@H](Oc1nc(C)cc(C)n1)C(=O)O", "%", 63),
    ("Cc1c(Cc2ccc3ccccc3n2)c2cc(F)ccc2n1CC(=O)O", "%", 55),
    ("CCCCC[C@H](O)/C=C/[C@H]1[C@H](O)CC(=O)[C@@H]1CCCCCCC(=O)O", "%", 55),
    ("Cc1cc(NC(=O)NCCN2CCC(O)(Cc3ccccc3)CC2)c2ccccc2n1", "%", 57),
    ("CCCCCCNC(=O)Nc1ccc(S(=O)(=O)Nc2ccc(CCNC[C@H](O)COc3ccc(O)cc3)cc2)cc1", "%", 64),
    ("C[C@@H]1CC(=O)Nc2cccc(-c3ccc4c(c3)c(-c3cnn(C)c3)nn4C)c2N1", "%", 65),
    ("CC(C)C[C@H](CO)Nc1nc(S[C@@H](C)c2ccccc2)nc2nc(N)sc12", "%", 57),
    ("Cc1sc2c(c1C)C(c1ccc(Cl)cc1)=N[C@H](CC(=O)OC(C)(C)C)c1nnc(C)n1-2", "%", 65),
    ("Cc1nn(C)c2nc(NNC(=O)Nc3cc(Cl)nc(Cl)c3)cc(C(C)C)c12", "%", 59),
    ("O=C(NCCNCC(O)COc1ccc(O)cc1)N1CCOCC1.O=C(NCCNCC(O)COc1ccc(O)cc1)N1CCOCC1.O=C(O)/C=C/C(=O)O (centres undefined) [XAMOTEROL FUMARATE]", "%", 57),
    ("Nc1nc(CC(=O)Nc2ccc(CCNC[C@H](O)c3ccccc3)cc2)cs1", "%", 56),
    ("O=c1ccc2ccc(OCCCCN3CCN(c4cccc5sccc45)CC3)cc2[nH]1", "%", 69),
]
